Numbers sourced from patent US20200283478A1.

- Measured On: T1, PCSK9Δhelix (human, Chemically biotinylated in the phage ELISAs; the site is not given.)
- T1 construct: construct M1-Q692 with engineered TEV site, cleaved by TEV; also called His-PCSK9Δhelix; open groove PCSK9Δhelix
- Method Description: phage competition ELISA against phage-displayed K9gvpep4 (ΦK9gvpep4)
Bridge positions count the residues as written; N and C are the ends.
Reported Property: pIC50
When answering, recall that pIC50 equals minus log10 of the concentration in mol/L, and write that number alone.

>>> print(df.to_string())
                                     binder  reported_property  result_value
0  Ac-TVFTSWEEYLDWVGSGDLMPWNLVRIGLLR-NH2 (also called Pep2-8p7; Pep2-8_K9gvpep7) [Compound 20]              pIC50          8.22

Let us examine a further case.
Query string: What value of measured pIC50 is listed for Ac-TVFTSWEEYLDWVGSGCRLPWNLQRIGLPC-NH2 (disulfide 17-30 (inferred), also called Pep2-8p4; Pep2-8_K9gvpep4) [Compound 19] ?
Result string: 8.25
